- Tested on: human biphenotypic B myelomonocytic leukemia MV4-11
- test.summary: Antiproliferative activity, MTT assay, 72 h
- Assay type: cell-based
- test.settings: Homo sapiens; MV4-11, 72 h, MTT; read-out: IC50
Listed next: entries and their corresponding IC50.
Field: numeric (µM). Do not append units.

Completed entries (count: 8):
C#CCCC(=O)OC[C@]12CC[C@@H](C(=C)C)C1C1CCC3[C@@]4(C)CC[C@H](OC(=O)CCC(=O)O)C(C)(C)C4CC[C@@]3(C)[C@]1(C)CC2 (some centres unmarked) : 3.53
C=C(C)[C@@H]1CC[C@]2(COC(C)=O)CC[C@]3(C)C(CCC4[C@@]5(C)CC[C@H](OC(=O)CC(C)(C)CC(=O)O)C(C)(C)C5CC[C@]43C)C12 (some centres unmarked) : 2.9
C=C(C)[C@@H]1CC[C@]2(CO)CC[C@]3(C)C(CCC4[C@@]5(C)CC[C@H](OC(=O)CCC(=O)O)C(C)(C)C5CC[C@]43C)C12 (some centres unmarked) : 6.45
C=C(C)[C@@H]1CC[C@]2(COC(=O)CC)CC[C@]3(C)C(CCC4[C@@]5(C)CC[C@H](OC(=O)CC(C)(C)C(=O)O)C(C)(C)C5CC[C@]43C)C12 (some centres unmarked) : 2.5
C=C(C)[C@@H]1CC[C@]2(CO)CC[C@]3(C)C(CCC4[C@@]5(C)CC[C@H](OC(=O)CC(C)(C)CC(=O)O)C(C)(C)C5CC[C@]43C)C12 (some centres unmarked) : 4.77
C=C(C)[C@@H]1CC[C@]2(COC(C)=O)CC[C@]3(C)[C@H](CC[C@@H]4[C@@]5(C)CC[C@H](O)C(C)(C)[C@@H]5CC[C@]43C)[C@@H]12 [A, 28-O-acetylbetulin, reference compound] : 41.1
C#CC(=O)OC[C@]12CC[C@@H](C(=C)C)C1C1CCC3[C@@]4(C)CC[C@H](OC(=O)CCC(=O)O)C(C)(C)C4CC[C@@]3(C)[C@]1(C)CC2 (some centres unmarked) : 2.57
C#CCCC(=O)OC[C@]12CC[C@@H](C(=C)C)C1C1CCC3[C@@]4(C)CC[C@H](OC(=O)CC(C)(C)C(=O)O)C(C)(C)C4CC[C@@]3(C)[C@]1(C)CC2 (some centres unmarked) : 4.76

Below: the item to evaluate.
query: What value of measured IC50 is listed for C=C(C)[C@@H]1CC[C@]2(COC(=O)C#CC)CC[C@]3(C)C(CCC4[C@@]5(C)CC[C@H](OC(=O)CC(C)(C)C(=O)O)C(C)(C)C5CC[C@]43C)C12 (some centres unmarked) ?
result: 11

###

- Tested on: human lung carcinoma A549
- test.summary: Antiproliferative activity, SRB assay, 72 h
- Format: cell-based
- test.settings: Homo sapiens, A549, 72 h
Listed next: entries and their corresponding IC50.

C=C(C)[C@@H]1CC[C@]2(COC(C)=O)CC[C@]3(C)C(CCC4[C@@]5(C)CC[C@H](OC(=O)CCC(=O)O)C(C)(C)C5CC[C@]43C)C12 (some centres unmarked) : 5.13 µM

Below: the item to evaluate.
query: What value of measured IC50 is listed for C=C(C)[C@@H]1CC[C@]2(COC(C)=O)CC[C@]3(C)C(CCC4[C@@]5(C)CC[C@H](OC(=O)CC(C)(C)C(=O)O)C(C)(C)C5CC[C@]43C)C12 (some centres unmarked) ?
result: 4.57 µM

###

- Tested on: human breast cancer MCF-7
- test.summary: Antiproliferative activity, SRB assay, 72 h
- Type: cell-based
- test.settings: IC50 MCF-10A / IC50 MCF-7
Label key: true means SI under 2; false means SI of 2 or more.

Answered examples (4):
C=C(C)[C@@H]1CC[C@]2(COC(=O)CC)CC[C@]3(C)C(CCC4[C@@]5(C)CC[C@H](OC(=O)CC(C)(C)C(=O)O)C(C)(C)C5CC[C@]43C)C12 (some centres unmarked) : true
C=C(C)[C@@H]1CC[C@]2(CO)CC[C@]3(C)C(CCC4[C@@]5(C)CC[C@H](OC(=O)CCC(=O)O)C(C)(C)C5CC[C@]43C)C12 (some centres unmarked) : true
C#CCCC(=O)OC[C@]12CC[C@@H](C(=C)C)C1C1CCC3[C@@]4(C)CC[C@H](OC(=O)CC(C)(C)CC(=O)O)C(C)(C)C4CC[C@@]3(C)[C@]1(C)CC2 (some centres unmarked) : false
C=C(C)[C@@H]1CC[C@]2(COC(C)=O)CC[C@]3(C)C(CCC4[C@@]5(C)CC[C@H](OC(=O)CCC(=O)O)C(C)(C)C5CC[C@]43C)C12 (some centres unmarked) : true

Read the next record carefully.
query: Please state whether SI is below 2 for C=C(C)[C@@H]1CC[C@]2(CO)CC[C@]3(C)C(CCC4[C@@]5(C)CC[C@H](OC(=O)CC(C)(C)C(=O)O)C(C)(C)C5CC[C@]43C)C12 (some centres unmarked)
result: true

###

- System: human breast cancer MCF-7
- test.summary: Antiproliferative activity, SRB assay, 72 h
- Type: cell-based
- test.settings: IC50 MCF-10A / IC50 MCF-7
Listed next: entries and their corresponding SI.
// keep it numeric: no unit symbol after the value

Completed entries (count: 2):
C=C(C)[C@@H]1CC[C@]2(COC(C)=O)CC[C@]3(C)[C@H](CC[C@@H]4[C@@]5(C)CC[C@H](O)C(C)(C)[C@@H]5CC[C@]43C)[C@@H]12 [A, 28-O-acetylbetulin, reference compound] : 1.71
C=C(C)[C@@H]1CC[C@]2(COC(C)=O)CC[C@]3(C)C(CCC4[C@@]5(C)CC[C@H](OC(=O)CC(C)(C)C(=O)O)C(C)(C)C5CC[C@]43C)C12 (stereo partly drawn) [Compound 2] : 2.04

Below: the item to evaluate.
query: What value of measured SI is listed for C=C(C)[C@@H]1CC[C@]2(COC(=O)CC)CC[C@]3(C)C(CCC4[C@@]5(C)CC[C@H](OC(=O)CC(C)(C)CC(=O)O)C(C)(C)C5CC[C@]43C)C12 (stereo partly drawn) [Compound 4d] ?
result: 2.93

###

Listed next: entries and their corresponding IC50.
- Test system: human breast cancer MCF-7
- test.summary: Antiproliferative activity, SRB assay, 72 h
- Type: cell-based
- test.settings: Homo sapiens, MCF7; MCF-7, 72 h, SRB; read-out: IC50
Field: numeric (µM). Do not append units.

C=C(C)[C@@H]1CC[C@]2(COC(=O)C#CC)CC[C@]3(C)C(CCC4[C@@]5(C)CC[C@H](OC(=O)CC(C)(C)CC(=O)O)C(C)(C)C5CC[C@]43C)C12 (stereo partly drawn) [Compound 4c] : 16.6
C#CCCC(=O)OC[C@]12CC[C@@H](C(=C)C)C1C1CCC3[C@@]4(C)CC[C@H](OC(=O)CC(C)(C)CC(=O)O)C(C)(C)C4CC[C@@]3(C)[C@]1(C)CC2 (stereo partly drawn) [Compound 4b] : 11.7
C=C(C)[C@@H]1CC[C@]2(COC(C)=O)CC[C@]3(C)[C@H](CC[C@@H]4[C@@]5(C)CC[C@H](O)C(C)(C)[C@@H]5CC[C@]43C)[C@@H]12 [A, 28-O-acetylbetulin, reference compound] : 72.4
C=C(C)[C@@H]1CC[C@]2(CO)CC[C@]3(C)C(CCC4[C@@]5(C)CC[C@H](OC(=O)CCC(=O)O)C(C)(C)C5CC[C@]43C)C12 (stereo partly drawn) [Compound 6] : 19

query: What value of measured IC50 is listed for C=C(C)[C@@H]1CC[C@]2(COC(=O)CC)CC[C@]3(C)C(CCC4[C@@]5(C)CC[C@H](OC(=O)CC(C)(C)CC(=O)O)C(C)(C)C5CC[C@]43C)C12 (stereo partly drawn) [Compound 4d] ?
result: 20.6

query: What value of measured IC50 is listed for C=C(C)[C@@H]1CC[C@]2(CO)CC[C@]3(C)C(CCC4[C@@]5(C)CC[C@H](OC(=O)CC(C)(C)C(=O)O)C(C)(C)C5CC[C@]43C)C12 (stereo partly drawn) [Compound 5] ?
result: 29.2

query: What value of measured IC50 is listed for C=C(C)[C@@H]1CC[C@]2(CO)CC[C@]3(C)[C@H](CC[C@@H]4[C@@]5(C)CC[C@H](O)C(C)(C)[C@@H]5CC[C@]43C)[C@@H]12 [B, betulin, reference compound] ?
result: 43.6

query: What value of measured IC50 is listed for C=C(C)[C@@H]1CC[C@]2(COC(=O)CC)CC[C@]3(C)C(CCC4[C@@]5(C)CC[C@H](OC(=O)CC(C)(C)C(=O)O)C(C)(C)C5CC[C@]43C)C12 (stereo partly drawn) [Compound 5d] ?
result: 21.1

query: What value of measured IC50 is listed for C=C(C)[C@@H]1CC[C@]2(COC(C)=O)CC[C@]3(C)C(CCC4[C@@]5(C)CC[C@H](OC(=O)CC(C)(C)CC(=O)O)C(C)(C)C5CC[C@]43C)C12 (stereo partly drawn) [Compound 1] ?
result: 7.02

meta.source: paper PMC11821258
